Measured TGI of individual entries
# Test system: SW-620 colon
# METHOD: NCI tumour cell line growth inhibition, 48 h

Worked examples follow.
O=C(c1ccccc1)c1ccc2n[se]nc2c1 = > 100 µM
CC1(C)OCN(c2ccc(N3CCOCC3)cc2)Cn2c1nc1ccccc12 = > 100 µM
NC(CCCC(N)P(=O)(O)O)P(=O)(O)O (stereo unspecified) = > 100 µM
CCCC1(CC(=O)O)OCCc2c1[nH]c1ccccc21 (stereo unspecified) = > 100 µM
Cc1nc2ccc(Br)cc2c(=O)n1-c1nnc(C(C)(C)C)s1 = > 10 µM

Now examine the next entry.
Task: Output TGI of Cc1ccc(S(=O)(=O)N/N=C2\CCCCC23CCC(=O)NC3)cc1 (stereo unspecified)
Result: > 100 µM
